# experimental-system: T1, human tau (human, UniProt P10636 2-60)
# T1 construct: also called soluble human tau; human tau protein
# T1 sequence (P10636 2-60 limits assumed): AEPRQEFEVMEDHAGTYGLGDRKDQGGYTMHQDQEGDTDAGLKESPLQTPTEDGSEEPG
# protocol-notes: competition ELISA on plate-coated human tau against biotinylated HJ8.5; IC50 normalised to chimeric HJ8.5; column C2N Run 1
assay-endpoint: IC50 (Relative to Chimera)

Documented IC50 (Relative to Chimera) of VH4/VK3 (antibody, human IgG4 S228P, kappa, V domains shown, humanized HJ8.5 variant, combination of VH4 and VK3) VH: EVQLVESGGGLVQPGGSLKLSCVVSGFTFSNYWVNWVRQAPGKGLEWVAQIRLKSDNYATHYEESVKGRFTISRDDSKNSLYLQMNSLRAEDTAIYYCTNWEDYWGQGTTVTVSS VL: DIVLTQSPDSLAVSLGERATISCRASQSVSTSRYSYIHWYQQKPGQPPKLLIKYASNLESGVPSRFSGSGSGTDFTLTISSLQPEDFATYYCHHSWEIPLTFGQGTKLEIKR : 1.79 relative to Chimera
